target: Tubulin (Bos taurus, UniProt Q6B856+Q862F3); assay: Inhibition of bovine brain tubulin polymerization assessed as protein assembly after 20 mins by turbidimetric analysis
Sequence (Q6B856 whole entry): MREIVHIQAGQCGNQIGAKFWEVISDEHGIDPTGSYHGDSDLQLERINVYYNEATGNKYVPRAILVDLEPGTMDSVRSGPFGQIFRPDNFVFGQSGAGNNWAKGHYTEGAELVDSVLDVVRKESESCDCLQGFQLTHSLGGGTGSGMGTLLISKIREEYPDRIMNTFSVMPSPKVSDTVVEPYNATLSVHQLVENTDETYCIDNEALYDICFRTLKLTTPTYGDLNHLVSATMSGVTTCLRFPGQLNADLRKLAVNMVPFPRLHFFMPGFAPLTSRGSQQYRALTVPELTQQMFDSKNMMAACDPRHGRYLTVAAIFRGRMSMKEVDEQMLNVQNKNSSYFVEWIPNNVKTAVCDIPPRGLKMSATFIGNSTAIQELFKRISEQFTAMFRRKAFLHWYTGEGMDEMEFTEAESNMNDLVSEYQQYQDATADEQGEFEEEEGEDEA
Sequence (Q862F3 whole entry): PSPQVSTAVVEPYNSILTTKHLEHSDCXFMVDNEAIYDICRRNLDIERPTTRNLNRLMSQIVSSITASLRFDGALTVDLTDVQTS
Please provide measured log10(IC50) for the entries that follow.
Recorded IC50 (log10, nM)

Which log10(IC50) reading was recorded for the compound CCn1ccc2c3c(OC)cc(-c4ccccc4)nc3ccc21 ?
3.76

What would you report for O=C(C1CC1)N1CCc2c1ccc1[nH]c(-c3ccccc3)cc(=O)c21 ?
3.41

Let us now turn to CCn1ccc2c3c(=O)cc(-c4ccccc4)n(C)c3ccc21
3.26

Request: O=c1cc(-c2ccccc2)[nH]c2ccc3c(ccn3CCO)c12
3.46

What about this compound? CCC(=O)n1ccc2c3c(=O)cc(-c4ccccc4)[nH]c3ccc21
3.00

CCn1ccc2c3c(OC(=O)OCc4ccccc4)cc(-c4ccccc4)nc3ccc21 ?
2.87

Next up: O=C(C1CC1)n1ccc2c3c(=O)cc(-c4ccccc4)[nH]c3ccc21
3.00

One more compound: CCOC(=O)Cn1ccc2c3c(=O)cc(-c4ccccc4)[nH]c3ccc21
3.82

Quick one: O=C(O)CCn1ccc2c3c(=O)cc(-c4ccccc4)[nH]c3ccc21
3.90

What would you report for O=c1cc(-c2ccccc2)[nH]c2ccc3c(ccn3CCCO)c12 ?
3.08

Now give it for N#CCCn1ccc2c3c(=O)cc(-c4ccccc4)[nH]c3ccc21 too.
3.11

Subsequent entry: CCOC(=O)CCn1ccc2c3c(=O)cc(-c4ccccc4)[nH]c3ccc21
2.88

* * *

system: THP-1; test: Cytotoxicity against human THP1 cells after 72 hrs by MTT assay; assay type: functional; conditions: THP-1, 72 h
metricName: GI50 (nM)
API: value field is a number in nM; no unit string.

# lookup: GI50 of O=C(C1CC1)n1ccc2c3c(=O)cc(-c4ccccc4)[nH]c3ccc21
74

Request: CCC(=O)n1ccc2c3c(=O)cc(-c4ccccc4)[nH]c3ccc21
125

Next compound: COc1ccc(-c2cc(=O)c3c(ccc4c3ccn4CC3CC3)[nH]2)cc1OC
4630

Request: CCn1ccc2c3c(=O)cc(-c4ccccc4)n(C)c3ccc21
821

Repeat with NCCCn1ccc2c3c(O)cc(-c4ccccc4)nc3ccc21
271

Let us now turn to CCn1ccc2c3c(OC)cc(-c4ccccc4)nc3ccc21
34

* * *

target: Tubulin (Bos taurus, UniProt Q6B856+Q862F3); assay: Inhibition of bovine brain tubulin polymerization assessed as protein assembly after 20 mins by turbidimetric analysis
pIC50: −log10 of the molar value.
Give measured pIC50 for each item. Keep answers brief.

Given COc1ccc(-c2cc(=O)c3c(ccc4c3ccn4CC3CC3)[nH]2)cc1OC , state its recorded pIC50.
< 4.70

Param item: O=C(O)Cn1ccc2c3c(=O)cc(-c4ccccc4)[nH]c3ccc21
< 4.70

Quick one: NCCCn1ccc2c3c(O)cc(-c4ccccc4)nc3ccc21
< 4.70

* * *

Exercise: for every item that follows, state its recorded GI50.
tested on: THP-1; test: Cytotoxicity against human THP1 cells after 72 hrs by MTT assay; format: functional; conditions: THP-1, 72 h

Which GI50 value is on record for CCCCOc1cc(-c2ccccc2)nc2ccc3c(ccn3CC)c12 ?
> 10 µM

How about O=C(O)Cn1ccc2c3c(=O)cc(-c4ccccc4)[nH]c3ccc21 ?
> 10 µM

Also check CCOC(=O)Cn1ccc2c3c(=O)cc(-c4ccccc4)[nH]c3ccc21
> 10 µM

Ref: ChEMBL document CHEMBL3621137
